Taken from patent US20210317231A1.

- tgt: T1, human 5T4 oncofoetal antigen (human, UniProt Q13641 32-420)
- T1 construct: whole, on cells; also called hu 5T4; human 5T4 antigen
- T1 sequence (looked up): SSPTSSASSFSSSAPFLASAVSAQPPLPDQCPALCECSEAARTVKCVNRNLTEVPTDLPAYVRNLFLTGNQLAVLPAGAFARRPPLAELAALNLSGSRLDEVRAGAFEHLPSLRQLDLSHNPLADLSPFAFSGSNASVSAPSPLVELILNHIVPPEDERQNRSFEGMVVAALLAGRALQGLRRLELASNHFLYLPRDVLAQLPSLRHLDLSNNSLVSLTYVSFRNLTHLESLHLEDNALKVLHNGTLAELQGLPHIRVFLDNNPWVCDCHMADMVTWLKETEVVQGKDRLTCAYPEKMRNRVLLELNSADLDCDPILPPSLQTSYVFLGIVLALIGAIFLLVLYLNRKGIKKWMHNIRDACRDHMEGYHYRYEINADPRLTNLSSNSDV
- run_description: flow cytometry, MDA-MB-468 cells
- Experimental: 17 antibodies were selected and affinity to 5T4 antigen was measured using MDA-MB-468 cells, PA-1 cells and Chinese Hamster Ovary (CHO) mammalian cells expressing human or cyno 5T4 antigen (Table 2). In the current application the utilized CHO cells are referred to as CHOZN as these CHO cells expressing human or cyno 5T4 antigen were obtained using the CHOZN® Platform of Sigma-Aldrich. […]
Labelling: EC50 reported below 0.09 µg/mL becomes True; at or above becomes False.

I wonder whether chimeric anti-5T4 monoclonal antibody 833 (antibody, IgG1, V domains shown, also called clone 833) VH: QSLEESGGGLVTPGGSLTLTCTGSGIDLSHYVVGWVRQAPGKGLEWIGIIYGSGRTYYANWAKGRFTISKTSTTVDLRIARPTAEDTATYFCARDASVSVYYWGYFDLWGQGTLVTVSS VL: AYDMTQTPVSVEVAVGGTVTIKCQASQSIGSELAWYQQKPGQPPKLLIYRASTLESGVPSRFSGSGSGTEFTLTISGVESADAATYYCQQGYTYSEIDNAFGGGTEVVVK has EC50 below 0.09 µg/mL. Can you tell?
True

Here's an entry: chimeric anti-5T4 monoclonal antibody 834 (antibody, human IgG1, V domains shown) VH: QSVEESGGRLVTPGTPLTLTCTVSGFSLSTYSMSWVRQAPGKGLEWIGVISRGGSAYYASWAKGRFTISKTSTTVDLKVTSPTTEDTATYFCARGAISSGYYVYDGMDLWGPGTLVTVSS VL: DIVMTQTPGSVEAAVGGTVTIKCQASESISSYLAWYQQKPGQPPKFLIYSASTLASGVPSRFKGSGSGTEFTLTISDLESADAATYYCQCTDYGSDYMGAFGGGTGVVVK . Is its EC50 below 0.09 µg/mL?
False

Check if EC50 falls below 0.09 µg/mL for chimeric anti-5T4 monoclonal antibody 789 (antibody, human IgG1, V domains shown, also called clone 789) VH: QSVEESGGRLVTPGTPLTLTCTASGFSLSSYWMSWVRQAPGKGLEWIGIIAGRGSTYYASWAKGRCTISKTSTTVDLKITSPTTEDTAAYFCARVSSIYYTFNLWGQGTLVTVSS VL: AQVLTQTPSSVSAAVGGTVTINCQSSQSVYSNNELSWYQQKPGQPPKLLIYYASTLASGVPSRFKGSGSGTQFTLTISGVQSDDAATYYCQGSYYSGSGWYYAFGGGTEVVVK .
False

Hi there! Is EC50 for chimeric anti-5T4 monoclonal antibody 825 (antibody, human IgG1, V domains shown, also called clone 825) VH: QSVEESGGRLVTPGTPLTLTCTVSGIDLSSYGMGWVRQAPGKGLEYIGIISRNSVTYYATWAKGRFTISKTSTTVDLKMTSPTTEDTATYFCARRATYSGALGYFDIWGPGTLVTVSF VL: GYDMTQTPASVSAAVGGTVTINCQASENIYSTLAWYQQKPGQPPKVLIYDAFDLASGVPSRFKGSGSGTEYTLTISGVQSDDAATYYCQQGYSGTNVDNAFGGGTEVVVK below 0.09 µg/mL, do you know?
True
